Origin of measurements: patent US10246429B2

Molecular target: BACE1 (Homo sapiens (Human), UniProt P56817)
Experiment: In vitro enzymatic BACE1 FRET assay
Assay type: biochemical
Conditions: read-out: IC50 IP (μM) BACE1 Enzyme
Sequence (P56817 46-501): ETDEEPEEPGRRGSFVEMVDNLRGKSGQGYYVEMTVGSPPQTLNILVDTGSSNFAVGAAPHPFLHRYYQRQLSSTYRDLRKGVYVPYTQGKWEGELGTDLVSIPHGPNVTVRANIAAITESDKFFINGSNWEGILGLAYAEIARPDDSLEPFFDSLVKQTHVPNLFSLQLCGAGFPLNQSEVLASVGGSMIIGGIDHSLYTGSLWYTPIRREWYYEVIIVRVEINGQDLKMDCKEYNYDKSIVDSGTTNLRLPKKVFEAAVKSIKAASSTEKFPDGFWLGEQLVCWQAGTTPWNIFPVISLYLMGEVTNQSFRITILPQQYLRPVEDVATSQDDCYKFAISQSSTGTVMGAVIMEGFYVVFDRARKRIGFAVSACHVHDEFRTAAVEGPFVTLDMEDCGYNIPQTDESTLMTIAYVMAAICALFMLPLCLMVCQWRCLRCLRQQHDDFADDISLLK

CHEM SMILES	IC50 (µM)
CNC(=O)[C@]12C[C@H]1[C@@](C)(c1cc(/C=C(\F)c3ccc(C#N)cn3)ccc1F)N=C(N)S2	0.0018
C[C@]1(c2cc(/C=C(\F)c3ccc(C#C[Si](C)(C)C)cn3)ccc2F)N=C(N)S[C@@]2(C(=O)N3CCOCC3)C[C@H]21	0.013
Cc1cc(COc2cnc(/C(F)=C/c3ccc(F)c([C@@]4(C)N=C(N)S[C@@]5(C(=O)N(C)C)C[C@H]54)c3)cn2)on1	0.01

====

Target: BACE1 (Homo sapiens (Human), UniProt P56817)
Experiment: BACE1 cell assay
Assay type: cell-based
Conditions: read-out: IC50 IP (μM) BACE1 Cell
Sequence (P56817 46-501, species assumed): as the sequence (P56817 46-501) above

MOLECULE	READOUT UNIT	IC50
CN(C)C(=O)[C@]12C[C@H]1[C@@](C)(c1cc(/C=C(\F)c3cnc(C#N)nc3)ccc1F)N=C(N)S2 [Example 173]	µM	0.924
COC[C@]12C[C@H]1[C@@](C)(c1cc(/C=C(\F)c3cnc(OCC(F)F)cn3)ccc1F)N=C(N)S2 [Example 266]	µM	1.51
CN(C)C(=O)[C@]12C[C@H]1[C@@](C)(c1cc(/C=C(\F)c3cnc(OCC4CC4)cn3)ccc1F)N=C(N)S2 [Example 211]	µM	0.247
COc1ncc(/C=C(\F)c2ccc(C#N)cn2)cc1[C@@]1(C)N=C(N)S[C@@]2(C(=O)N3CC[C@@H](F)C3)C[C@H]21 [Example 184]	µM	0.014
CC1(C)COCCN1C(=O)[C@]12C[C@H]1[C@@](C)(c1cc(/C=C(\F)c3ccc(C#N)cn3)ccc1F)N=C(N)S2 [Example 332]	µM	0.0026
C[C@]1(c2cc(/C=C(\F)c3ccc(C#N)cn3)cnc2F)N=C(N)S[C@@]2(C(=O)N3CC[C@@H](F)C3)C[C@H]21 [Example 181]	µM	0.0073
COC[C@]12C[C@H]1[C@@](C)(c1cc(/C=C(\F)c3cnc(OCC4COC4)cn3)ccc1F)N=C(N)S2 [Example 272]	µM	2.53
CNC(=O)[C@]12C[C@H]1[C@@](C)(c1cc(/C=C(\F)c3cnc(C#CCO)cn3)ccc1F)N=C(N)S2 [Example 362]	µM	0.104
CN(C)C(=O)[C@]12C[C@H]1[C@@](C)(c1cc(/C=C(\F)c3ncc(C#N)s3)ccc1F)N=C(N)S2 [Example 219]	µM	0.005
C[C@]1(c2cc(/C=C(\F)c3ccc(C#N)cn3)ccc2F)N=C(N)S[C@@]2(C(=O)N3CCCC(F)(F)C3)C[C@H]21 [Example 324]	µM	0.0031
C#CCOc1cnc(/C(F)=C/c2cnc(F)c([C@@]3(C)N=C(N)S[C@@]4(C(=O)N5CC[C@H](F)C5)C[C@H]43)c2)cn1 [Example 280]	µM	0.0016
Cc1nnc(COc2cnc(/C(F)=C/c3ccc(F)c([C@@]4(C)N=C(N)S[C@@]5(C(=O)N(C)C)C[C@H]54)c3)cn2)o1 [Example 216]	µM	0.005
COC[C@]12C[C@H]1[C@@](C)(c1cc(/C=C(\F)c3cc4c(cn3)OCCO4)ccc1F)N=C(N)S2 [Example 305]	µM	0.793
